# System: A498 renal
# Test: NCI tumour cell line growth inhibition, 48 h
Measured attribute: TGI

In the examples that follow, each entry is paired with its recorded TGI.
>>> print(df.to_string())
                                   compound  readout_value
0  Cc1ccc(/C=C/c2c(C(=O)/C=C/c3ccc(C(F)(F)F)cc3)c(C)nc3ccccc23)cc1        3.24 µM
1  CC1(C)OCCn2c1nc1c(N3CCOCC3)nc(-c3cnc(N)nc3)nc12       0.627 µM

For the 3 compounds below, give their TGI values.
1. CC(C)=CCc1c(O)ccc2ccc(=O)oc12
2. Oc1cc(O)c2c(c1)OC(c1ccc(O)c(O)c1)C(OC1(c3cc(O)c(O)c(O)c3)Oc3cc(O)cc(O)c3C(O)C1O)C2 (stereo not given)
3. O=C(NS(=O)(=O)OCC(Cl)(Cl)Cl)SCCC(F)(F)C(F)(F)C(F)(F)C(F)(F)C(F)(F)C(F)(F)F

Found:
1: > 100 µM; 2: > 49.9 µM; 3: 61.9 µM

State recorded TGI for all listed compounds.
1. CCOC(=O)C(=Cc1cccc(Cl)c1)C(=O)OCC
2. Nc1nc2c(ncn2Cc2ccc(CO)cc2)c(=O)[nH]1
3. COc1ccc(/C=N/n2c(-c3ccccc3)n[nH]c2=O)cc1

Found:
["24.2 µM", "> 100 µM", "> 100 µM"]

Look up TGI for the entries below, preserving their order.
1. CCCNC(=S)/N=C/c1c(O)c2ccccc2[nH]c1=O
2. COc1ccc(C(OC(C)=O)C2C(=C(C#N)C#N)c3ccccc3C2=C(C#N)C#N)cc1 (stereo not given)
3. COc1ccc2[nH]cc(-c3nc(-c4c[nH]c5ncccc45)cs3)c2c1
4. COc1cc(C2SCC(=O)N2c2ccc(Cl)c(Cl)c2)cc(OC)c1OC (stereo not given)
5. COc1ccc(OC)c(C2Cc3cnc4nc(N)nc(N)c4c3C2)c1 (stereo not given)
6. COc1ccc(-c2cc(-c3ccccc3)c(C#N)c(=O)n2C2OC(CO)C(O)C(O)C2O)cc1 (stereo not given)
7. O=C(O)CCN(CCC(=O)O)c1ccc(/C=C2\SC(=S)NC2=O)cc1

Found:
["> 100 µM", "58.6 µM", "> 100 µM", "> 100 µM", "33 µM", "> 100 µM", "> 100 µM"]

Give measured TGI for every item shown.
1. CCOC(=O)C1=C(N)Oc2ccc(Br)cc2C1C(C#N)C(=O)OCC (stereo not given)
2. CC[C@@]12N=C(N(C)C)C[C@]1(O)ON=C2C
3. CCCCn1c(C)c2c(c1C)C(=O)N(CC(O)CN1CCc3ccccc3C1)C2=O (stereo not given)
4. CC1=CC(=O)[C@@H](O)[C@]2(C)[C@H]3[C@@]4(O)OC[C@]35[C@H]([C@@H](C)[C@H]4O)[C@@H](O)C(=O)O[C@@H]5C[C@@H]12
5. O=C1C[C@H]2[C@@H](O1)[C@@H](O)CN1C(=O)c3ccccc3[C@H]21

Found:
> 100 µM
> 100 µM
> 100 µM
4.45 µM
> 100 µM
